# ASSAY_SYSTEM: T1, light-activated rhodopsin (bovine rod outer segment membranes) (bovine, UniProt P02699 1-348, retinylidene chromophore bound to Lys-296)
# T1 construct: whole, on cells; native receptor in membrane fragments immobilised on wells, not intact cells; also called metarhodopsin II; MII
# T1 sequence (P02699 whole entry, the tested form may be a part): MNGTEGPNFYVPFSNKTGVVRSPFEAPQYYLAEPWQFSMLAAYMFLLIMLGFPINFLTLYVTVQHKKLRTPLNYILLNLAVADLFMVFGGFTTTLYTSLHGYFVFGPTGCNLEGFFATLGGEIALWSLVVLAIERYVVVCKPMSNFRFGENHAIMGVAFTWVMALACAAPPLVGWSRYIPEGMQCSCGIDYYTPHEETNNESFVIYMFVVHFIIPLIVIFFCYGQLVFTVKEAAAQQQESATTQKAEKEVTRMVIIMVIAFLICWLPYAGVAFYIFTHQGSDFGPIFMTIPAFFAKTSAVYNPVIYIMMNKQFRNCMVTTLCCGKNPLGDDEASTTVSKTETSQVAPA
# MEASUREMENT_NOTES: LacI display panning, light-activated ROS membranes
Where no end group is shown, it is not given here.

BINDER	binding result
MCESLKECGLF (peptide, not shown: small tags and cut ends, cysteine pairing not given here; also: fused to LacI carrier via linker, letters not given here) [Clone No. 27 (Table IX) MCESLKECGLF]	binds
IIDNLKDCGLF (peptide, not shown: small tags and cut ends, also: fused to LacI carrier via linker, letters not given here) [Clone No. 16 (Table IX) IIDNLKDCGLF]	binds
ILTKLTDCGLF (peptide, not shown: small tags and cut ends, also: fused to LacI carrier via linker, letters not given here) [Clone No. 4 (Table IX) ILTKLTDCGLF]	binds
ICENLKECGLF (peptide, not shown: small tags and cut ends, cysteine pairing not given here; also: fused to LacI carrier via linker, letters not given here) [Clone No. 10 (Table IX) ICENLKECGLF]	binds
IQGVLKDCGLL (peptide, not shown: small tags and cut ends, also: fused to LacI carrier via linker, letters not given here) [Clone No. 9 (Table IX) IQGVLKDCGLL]	binds
